study target: CDK7/CycH/MAT1 (Homo sapiens, UniProt P50613)
Construct: purchased ProQinase 0366-0360-4
Sequence (P50613 whole entry): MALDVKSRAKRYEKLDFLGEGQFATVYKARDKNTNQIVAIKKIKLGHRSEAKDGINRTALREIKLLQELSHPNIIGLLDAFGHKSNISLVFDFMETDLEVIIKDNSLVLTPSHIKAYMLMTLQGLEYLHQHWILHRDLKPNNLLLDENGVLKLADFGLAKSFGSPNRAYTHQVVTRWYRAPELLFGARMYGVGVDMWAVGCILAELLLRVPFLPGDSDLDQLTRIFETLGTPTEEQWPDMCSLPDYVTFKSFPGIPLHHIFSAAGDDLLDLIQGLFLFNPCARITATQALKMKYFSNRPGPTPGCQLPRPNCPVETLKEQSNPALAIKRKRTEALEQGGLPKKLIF
Sequence (P51946 whole entry partner): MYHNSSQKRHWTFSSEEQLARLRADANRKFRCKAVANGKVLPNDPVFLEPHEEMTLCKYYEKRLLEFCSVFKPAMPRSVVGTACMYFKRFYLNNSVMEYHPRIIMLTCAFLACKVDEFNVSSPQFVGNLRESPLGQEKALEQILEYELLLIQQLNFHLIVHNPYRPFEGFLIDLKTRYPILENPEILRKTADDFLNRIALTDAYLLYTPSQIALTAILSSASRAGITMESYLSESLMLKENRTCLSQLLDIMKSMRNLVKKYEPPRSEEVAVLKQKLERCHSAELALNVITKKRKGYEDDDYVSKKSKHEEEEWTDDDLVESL
Sequence (P51948 whole entry partner): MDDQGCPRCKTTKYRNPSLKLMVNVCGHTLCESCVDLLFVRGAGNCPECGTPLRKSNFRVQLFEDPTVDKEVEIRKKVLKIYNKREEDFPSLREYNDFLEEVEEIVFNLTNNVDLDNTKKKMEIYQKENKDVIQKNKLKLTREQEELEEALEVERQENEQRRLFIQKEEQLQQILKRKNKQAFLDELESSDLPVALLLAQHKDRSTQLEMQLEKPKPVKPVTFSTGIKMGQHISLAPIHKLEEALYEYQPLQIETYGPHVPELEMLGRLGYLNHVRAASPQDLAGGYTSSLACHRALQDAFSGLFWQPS
assay text: Kinase ADP-Glo Assay
Assay type: biochemical
cond: ADP-Glo assay (compounds without *), ATP 1 μM, 60 minutes at room temperature
Hi there, I'd appreciate the recorded IC50 for every entry that follows.

Below: 4 compounds and their reported IC50.
{"compound": "Cc1cc(F)cc(Nc2cc(NC[C@H]3CCCNC3)nc3c(C4CCC4)cnn23)c1 [Compound I-59]", "reported value": "> 1000 nM"}
{"compound": "FC(F)(F)Cc1cccc(Nc2cc(N[C@H]3CCCNC3)nc3c(C4CC4)cnn23)c1 [Compound I-10]", "reported value": "100 to 1000 nM"}
{"compound": "O[C@@H]1CNCC[C@H]1CNc1cc(Nc2cccc(F)c2)n2ncc(C3CC3)c2n1 [Compound I-11]", "reported value": "< 100 nM"}
{"compound": "Cc1cc(F)cc(Nc2cc(O[C@H]3CCCNC3)nc3c(C4CCC4)cnn23)c1 [Compound I-58]", "reported value": "< 100 nM"}

Please give IC50 for each item listed below.
1. O[C@@H]1CNCC[C@H]1COc1cc(Nc2cccc(F)c2)n2ncc(C3CC3)c2n1 (relative stereo) [Compound I-53]
2. N#Cc1cccc(Nc2cc(NC[C@@H]3CCNC[C@H]3O)nc3c(C4CC4)cnn23)c1 [Compound I-15]
3. Cc1cc(F)cc(Nc2cc(O[C@@H]3CNC[C@@H](O)C3)nc3c(C4CCC4)cnn23)c1 (relative stereo) [Compound I-57]

1. < 100 nM
2. 100 to 1000 nM
3. < 100 nM
